Quick reference: protein stability index of the listed items.
B1: ZNF511 (parent)
chain: HLYPADFRFDKPKKSRSPASAEAP

Variants of: B1
Experiment: protein stability index of a GFP-peptide fusion (GPS, HEK-293T) (PSI 1-6); higher = more stable;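 also: lentivirally expressed fusions sorted by FACS into six bins by GFP to DsRed ratio, PSI derived from sequencing read proportions per bin multiplied by bin number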
Conditions: c terminus: a fixed tail appended
METRIC NAME: protein stability index

>>> measurement("H1R")
3.57
>>> measurement("R8K")
3.3
>>> measurement("P12Y")
2.94
>>> measurement("S15Y")
2.51
>>> measurement("R8F")
2.37
>>> measurement("P18R")
2.79
>>> measurement("L2G")
4.37
>>> measurement("A19Q")
2.56
>>> measurement("D6H")
3
>>> measurement("A5R")
3.21
>>> measurement("A19T")
3.29
>>> measurement("S17H")
2.86
>>> measurement("Y3Q")
3.85
>>> measurement("A21S")
3.4
>>> measurement("A5C")
3.06
>>> measurement("K13E")
3.34
>>> measurement("A19S")
3.44
>>> measurement("D6R")
2.59
>>> measurement("R8M")
2.64
>>> measurement("P12D")
3.2
>>> measurement("H1L")
3.94
>>> measurement("R8W")
1.8
>>> measurement("D6M")
1.55
>>> measurement("A19D")
3.36
>>> measurement("K11D")
3.23
>>> measurement("Y3G")
4.38
>>> measurement("P24A")
3.32
>>> measurement("F9S")
2.05
>>> measurement("K11R")
2.89
>>> measurement("L2E")
4.73
>>> measurement("F9L")
3.18
>>> measurement("P12C")
2.94
>>> measurement("K13Y")
3.56
>>> measurement("P12H")
2.89
>>> measurement("D10W")
2.92
>>> measurement("R16A")
3.51
>>> measurement("K11E")
3.01
>>> measurement("A5M")
2.48
>>> measurement("S17V")
2.28
>>> measurement("R16K")
3.36
>>> measurement("A21V")
2.71
>>> measurement("P12A")
2.83
>>> measurement("R8E")
3.93
>>> measurement("S20G")
2.85
>>> measurement("S15I")
3.23
>>> measurement("K11P")
2.87
>>> measurement("P12K")
2.96
>>> measurement("H1P")
4.58
>>> measurement("D10V")
2.62
>>> measurement("D6C")
2.52
>>> measurement("P18A")
2.22
>>> measurement("E22R")
2.43
>>> measurement("A23K")
3.19
>>> measurement("Y3F")
3.13
>>> measurement("A21H")
3.12
>>> measurement("F7A")
4.81
>>> measurement("P4D")
4.22
>>> measurement("S20Q")
2.42
>>> measurement("R16N")
3.17
>>> measurement("P18H")
2.74
>>> measurement("R8D")
4.13
>>> measurement("A21F")
3.18
>>> measurement("R16S")
2.76
>>> measurement("D6N")
2.82
>>> measurement("P4Y")
2.73
>>> measurement("K11F")
2.95
>>> measurement("A23E")
2.88
>>> measurement("K14L")
3.24
>>> measurement("K11S")
3.32
>>> measurement("S15M")
2.88
>>> measurement("P24H")
2.87
>>> measurement("S20H")
2.69
>>> measurement("A21M")
3
>>> measurement("A19E")
2.97
>>> measurement("F9G")
2.63
>>> measurement("A21K")
2.81
>>> measurement("A5S")
2.69
>>> measurement("P24R")
2.39
>>> measurement("A21Q")
3.67
>>> measurement("K13L")
2.94
>>> measurement("H1T")
4.19
>>> measurement("H1Y")
2.08
>>> measurement("D6W")
2.87
